Data origin, for the record: patent US20210130454A1

Each entry below carries its recorded Kd.
Biological target: T1, recombinant human SEZ6L2 (extracellular portion of human SEZ6L2 fused to six C-terminal histidine-tag repeats) (human, UniProt Q6UXD5 28-844)
T1 construct: also called SEZ6L2-his; recombinant SEZ6L2
T1 sequence (Q6UXD5 other isoform, or with tags, fused parts or gaps): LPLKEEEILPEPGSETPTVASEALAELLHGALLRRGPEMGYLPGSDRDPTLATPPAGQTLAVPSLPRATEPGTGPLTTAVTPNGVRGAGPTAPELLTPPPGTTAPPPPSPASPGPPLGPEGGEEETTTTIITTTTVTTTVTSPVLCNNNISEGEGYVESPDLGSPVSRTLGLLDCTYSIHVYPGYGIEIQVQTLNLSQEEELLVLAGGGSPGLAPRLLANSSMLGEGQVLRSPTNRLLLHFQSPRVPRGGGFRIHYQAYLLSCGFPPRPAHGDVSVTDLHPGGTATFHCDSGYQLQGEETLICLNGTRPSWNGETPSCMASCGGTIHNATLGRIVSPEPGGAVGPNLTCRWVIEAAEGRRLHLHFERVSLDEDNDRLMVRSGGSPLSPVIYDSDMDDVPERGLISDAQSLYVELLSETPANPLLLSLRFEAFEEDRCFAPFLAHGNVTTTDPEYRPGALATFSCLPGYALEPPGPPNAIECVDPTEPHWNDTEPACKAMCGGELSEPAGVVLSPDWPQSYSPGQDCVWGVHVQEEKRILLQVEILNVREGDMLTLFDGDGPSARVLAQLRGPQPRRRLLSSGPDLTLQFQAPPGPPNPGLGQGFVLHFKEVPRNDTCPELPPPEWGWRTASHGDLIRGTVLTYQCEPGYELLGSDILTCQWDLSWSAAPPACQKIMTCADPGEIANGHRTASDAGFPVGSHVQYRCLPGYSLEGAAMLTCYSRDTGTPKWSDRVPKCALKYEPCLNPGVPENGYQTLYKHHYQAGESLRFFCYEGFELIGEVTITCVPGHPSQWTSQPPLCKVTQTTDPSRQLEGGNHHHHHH
Assay: BLI (ForteBio Octet Red96), antibody on Protein A biosensors, recombinant target protein in solution
measuredMetric: Kd (nM)

- binder: "humanized anti-SEZ6L2 antibody 20C4 (antibody, human IgG1, V domains shown, also called 20C4:red) VH: EVQLVESGGGLVQPGGSLRLSCAASGFTFTDYYMSWVRQAPGKGLEWVALIRNKANGYTTEYSASVKGRFTISRDNSKNSLYLQMNSLRAEDTAVYYCARNGLYGLFAYWGQGTLVTVSS VL: DIVMTQTPLSIPVTPGEPASISCRSSTSLLESSGKHRLYWYLQKPGQSPQLLIYYMSNLASGVPDRFSGSGSGTDFTLKISRVEAEDFGVYYCMQSLEYPLTFGAGTKVEIKR"
  measuredMetric: "Kd"
  observed: 3
- binder: "humanized anti-SEZ6L2 antibody 16H8 (antibody, human IgG1, V domains shown, Humanized from mu16H8; also called 16H8:A3F5) VH: QIQLVQPGAEVKKPGASVKVSCKASGYTFTSYWMYWVRQAPGQGLEWMGAIYPRDSDTSYNQKFKGRVTMTRVTSTSTVYMELSSLRSEDTAVYYCTRGDYYYGSSYYAMDYWGQGTTVTVSS VL: DIVMTQSPLSLPVTPGEPASISCSSSKSLLHSNGITYLYWYLQKPGQSPQLLIYRMSNLASGVPDRFSGSGSGTDFTLKISRVEAEDVGVYYCAQMLERPYTFGQGTKVEIKR"
  measuredMetric: "Kd"
  observed: 2
- binder: "humanized anti-SEZ6L2 antibody 2E4 (antibody, human IgG1, V domains shown, also called 2E4:4D2) VH: EVKLVESGGVLVKPGGSLRLSCAASGFTFSKYAMSWVRQAPGKGLEWVSTISSGGSYTYYPDSVKGRFTISRDNARNSLYLQMNSLRAEDTAIYYCTREGGYDEGYAMDYWGQGTTVTVSS VL: DIVMTQSPDSLAVSLGERATINCRSSQSLVHSYGNTYLHWYQQKPGQPPKLLIYKVSNRFSGVPDRFSGSGSGTDFTLTISSLQAEDVAVYFCSQSTHFRTFGGGTKVEIKR"
  measuredMetric: "Kd"
  observed: 7
- binder: "humanized anti-SEZ6L2 antibody 3E2 (antibody, human IgG1, V domains shown, also called 3E2:7D4) VH: EVQLVESGGGLVQPGGSLKLSCAASGFSFNTITMNWVRQASGKGLEWVGRIRSKSNNYATYYADAVKDRFTISRDDSKNTAYLQMNSLKTEDTAVYYCVRGIFSGYVYAMDYWGQGTLVTVSS VL: DVVMTQSPLSLPVTVGQPASISCRSSQSIVHSNGNTYLEWFQQRPGQSPRVLIYKVSNRFSGVPDRFSGSGSGTDFTLKISRVEAEDVGVYYCFQGSHVPYTFGGGTKLEIKR"
  measuredMetric: "Kd"
  observed: 2
